Assay overview: Toxicity liver stage against HepG2, at 10uM
Assay type: cell-based
Design: test concentration 10 uM, cell line HepG2-A16-CD81EGFP
Measurement conditions: human, HepG2-A16-CD81EGFP cells; read-out: INHIBITION
Attribute measured: cytotoxicity at 10 µM (%)

INSERT INTO measurements (molecule, reading) VALUES
  ('O=C(CCCN1CCOCC1)N1CCCC(CO)(CC2CC2)C1 (centres undefined)', -1.5),
  ('CCC(CC)C(=O)N1CCN(Cc2cc(=O)c3ccccc3[nH]2)CC1', -9.55),
  ('c1cc(CN2CCOCC3(C2)CN(Cc2nccs2)CCO3)ccn1 (centres undefined)', 2.14),
  ('CC(=O)N1CCC(c2nc(C)cc(-c3ccccc3C(=O)O)n2)CC1', -28),
  ('Cc1ccc2oc(C(=O)N3CCCC(n4nc(C)cc4C)C3)cc2n1 (centres undefined)', 1.25),
  ('Cc1onc(N)c1S(=O)(=O)N1CCCCC1C (centres undefined)', 12.4),
  ('O=C(O)C1CCCN1c1nc(-c2ccc(Cl)c(Cl)c2)cc(C(F)(F)F)n1 (centres undefined)', 32.1),
  ('CCn1ccnc1CN1CCCN(C(=O)c2ccnc(C)n2)CC1', -12.2),
  ('CC(C)c1nc(-c2ccc(=O)[nH]n2)n(-c2ccc3c(c2)OCO3)n1', 6.46),
  ('C=C(C)COCCNC(=O)Nc1cccc(Cn2nc(C)nc2C)c1', 7.64),
  ('COc1cccc2cc(CNC(=O)N3CCS(=O)(=O)CC3)oc12', -19.3),
  ('CC(C)c1ccc(C2(C(=O)NCCS(N)(=O)=O)CCC2)cc1', -2),
  ('CN(CCn1cccn1)S(=O)(=O)c1cccc(F)c1C#N', 3.41),
  ('COc1c(C)cnc(CNC(=O)CCc2nc3ccccc3[nH]2)c1C', -5.27),
  ('CC(CCc1ccccc1F)C(=O)NS(=O)(=O)CC1CC1 (centres undefined)', -5.36),
  ('CC(=O)N1CCN(Cc2ccccn2)CC2(CC(=O)N(C)C2)C1 (centres undefined)', 1.23),
  ('CCCc1noc(C2CC(=O)N(Cc3ccccc3)C2)n1 (centres undefined)', -2.62),
  ('c1ccc(O[C@H]2COCCN(CC3CC3)C2)cc1', 5.76),
  ('COc1c(CNCc2cccc(Cn3ccnc3C)c2)c(C)nn1C', 23.8),
  ('O=C(c1ccccc1OCC1CC1)N1CCCC1Cn1cccn1 (centres undefined)', -6.77),
  ('O=C1CC(Cc2ccc(NC(=O)c3cccc(F)c3)cc2)C(=O)N1 (centres undefined)', -1.39),
  ('O=C(NCc1ccc2c(c1)OCO2)[C@@H]1C=CCN1c1ncccn1', 0.146),
  ('Cc1n[nH]c(C2CN(C(=O)c3cc(C4CC4)[nH]n3)CCO2)n1 (centres undefined)', 0.192),
  ('CCc1c(C(=O)N2CCNC(=O)C2)cnn1C(C)(C)C', -20.3);

###

cytotoxicity at 10 µM: recorded values
Assay overview: Toxicity liver stage against HepG2, at 10uM
Type: cell-based
Parameters: test concentration 10 uM, cell line HepG2-A16-CD81EGFP
Measurement conditions: human, HepG2-A16-CD81EGFP cells; read-out: INHIBITION
Attribute measured: cytotoxicity at 10 µM

INSERT INTO assay_data (compound, attribute_measured, reading) VALUES
  ('O=C(O)c1ccccc1-c1c(-c2ccccc2)ncn1CC1CCCO1 (configuration not stated)', 'cytotoxicity at 10 µM', '2.84%'),
  ('CSCCC(C)(O)CNS(=O)(=O)Cc1ccc(F)cc1 (configuration not stated)', 'cytotoxicity at 10 µM', '-5.95%'),
  ('O=C1Nc2ccccc2CNC12CCN(CC1CCNC1)CC2 (configuration not stated)', 'cytotoxicity at 10 µM', '6.61%'),
  ('CCc1nnc2n1CCN(Cc1csc(NC(C)=O)n1)C2', 'cytotoxicity at 10 µM', '-1.45%'),
  ('CCOc1ccccc1CCn1cc2[nH]cccc-2c1=O', 'cytotoxicity at 10 µM', '13.6%'),
  ('CC(C)C(NC(=O)Cn1nc2c(cc1=O)CCCC2)C(=O)O (configuration not stated)', 'cytotoxicity at 10 µM', '7.63%'),
  ('Cc1cc(C(=O)N2C[C@@H]3COC[C@]3(c3nnc(C(C)C)o3)C2)on1', 'cytotoxicity at 10 µM', '-2.52%'),
  ('C1CN(c2nc(C3CC3)no2)CCN(C2CCOCC2)C1', 'cytotoxicity at 10 µM', '0.442%'),
  ('COCCNC(=O)c1ccc2c(=O)n3c(nc2c1)CCCCCC3', 'cytotoxicity at 10 µM', '-46.3%'),
  ('CCOCCCNC(=O)N(C)Cc1ccc(SC)c(OC)c1', 'cytotoxicity at 10 µM', '-5.41%'),
  ('CCOc1ccc(S(=O)(=O)NC(=O)CC2CCCO2)cc1 (configuration not stated)', 'cytotoxicity at 10 µM', '-16.3%'),
  ('Cc1cccc(Nc2noc3c2CN(C(=O)c2ccn(C)n2)CC3)c1C', 'cytotoxicity at 10 µM', '-0.61%');
